Some molecules, each annotated with its measured GI50.
Test system: SNB-19
Assay Comment: NCI tumour cell line growth inhibition, 48 h
The source made the active and inactive calls. No stated cut-off is given here; in the data, active = GI50 up to about 1.1 µM and inactive = higher.

{"columns": ["Molecule", "Measure Name", "Meas Value"],
 "data": [
  ["COc1ccc(/C=N/NC(=S)Nc2cc(C)ccc2OC)cc1", "GI50", "46.1 µM (inactive)"]
]}

### Prompt Report measured GI50 on SNB-19; entry: COC1=CC(C2c3cc4c(cc3[C@@H](Nc3ccc(F)cc3)C3COC(=O)[C@H]23)OCO4)=CC(=O)C1=O (some centres undefined)
### Response 5.57 µM (inactive)

* * *

Test system: SR
Assay Comment: NCI tumour cell line growth inhibition, 48 h
The source made the active and inactive calls. Cut-off read from the data, not from the text of the source: active = GI50 up to about 1.1 µM and inactive = higher.
Measure Name: GI50

Worked examples follow.
{"columns": ["Molecule", "GI50"],
 "data": [
  ["O=C1OC(C2Cc3cc4c(cc3C2=O)CCC4)c2ccccc21 (configuration not stated)", "35.7 µM (inactive)"],
  ["COC(=O)/C=C\\C(C#N)(C#N)/N=C/c1ccsc1", "0.214 µM (active)"],
  ["NC(Cc1ccccc1)C(=O)NC(Cc1ccccc1)NC(=O)C(Cc1c[nH]c2ccccc12)C(=O)O (configuration not stated)", "> 100 µM (inactive)"],
  ["CCCNc1[nH]c(C(C)=O)c(N)c1C(=S)Nc1ccccc1", "17.2 µM (inactive)"],
  ["CCc1c2c([nH]c(=S)c1C#N)CCC2", "74.5 µM (inactive)"]
]}

### Prompt Report measured GI50 on SR; entry: CCCCSCCC(N)P(=O)(O)O (configuration not stated)
### Response > 100 µM (inactive)

### Prompt Report measured GI50 on SR; entry: C=C1C2=C(CCCC2)C(=O)OC12CCCCC2
### Response 38.9 µM (inactive)

### Prompt Report measured GI50 on SR; entry: O=S(=O)(c1ccc(I)cc1)N(c1ccccc1)S(=O)(=O)C(F)(F)C(F)(F)C(F)(F)C(F)(F)F
### Response 56.5 µM (inactive)

### Prompt Report measured GI50 on SR; entry: CCN(CC)Cc1cc(Nc2c3ccccc3nc3c2[nH]c2ccccc23)ccc1O
### Response 0.337 µM (active)

### Prompt Report measured GI50 on SR; entry: CS(=O)(=O)OCCN(CCOS(C)(=O)=O)c1ccc(/C=N/c2cccc(Cl)c2)cc1
### Response 0.0537 µM (active)

### Prompt Report measured GI50 on SR; entry: COc1ccccc1/C=C1\S/C(=N/Nc2nc(C)c(C(C)=O)s2)NC1=O
### Response 31 µM (inactive)

### Prompt Report measured GI50 on SR; entry: CCCCCCCCCCCCCCCCCCOCC(CCP(=O)(CP(=O)(O)O)Oc1ccccc1)OCCCCCCCCCCCCCCCCCC (configuration not stated)
### Response > 100 µM (inactive)

### Prompt Report measured GI50 on SR; entry: CN(C)Cc1c(O)ccc2c1c1c(n2C)C(=O)c2ccccc2C1=O
### Response 1.06 µM (active)

### Prompt Report measured GI50 on SR; entry: CC(=O)N1C(Nc2nccs2)CCN1c1ccccc1 (configuration not stated)
### Response > 10 µM (inactive)

### Prompt Report measured GI50 on SR; entry: CC(C)(Oc1ccc(-c2cccc3ccccc23)cc1)C(=O)O
### Response > 100 µM (inactive)

### Prompt Report measured GI50 on SR; entry: COc1cccc(NC(=O)CC(=O)NN2C(=O)/C(=C/c3ccc(N(CCC#N)CCC#N)cc3)N=C2c2cc([N+](=O)[O-])ccc2Cl)c1
### Response 22.4 µM (inactive)

### Prompt Report measured GI50 on SR; entry: Clc1nc(Cl)c(-c2ccccc2)c(Cl)n1
### Response 2.48 µM (inactive)

### Prompt Report measured GI50 on SR; entry: CC1(C)OC[C@@H]([C@H](C=O)OCc2ccccc2)O1
### Response > 100 µM (inactive)

### Prompt Report measured GI50 on SR; entry: NN/C(=N\S(=O)(=O)c1cc(Cl)c(Oc2ccc([N+](=O)[O-])cc2Cl)c(Cl)c1)Nc1ccc(Cl)cc1
### Response 16.6 µM (inactive)

### Prompt Report measured GI50 on SR; entry: COC(=O)/C(C#N)=C1\CCC(C(=O)OC)N1C (configuration not stated)
### Response > 100 µM (inactive)

### Prompt Report measured GI50 on SR; entry: O=c1oc2ccccc2cc1-c1cn2c(n1)sc1ccccc12
### Response > 100 µM (inactive)

### Prompt Report measured GI50 on SR; entry: Nc1nc(Cl)cc(NCC2(CO)CC(CCCc3ccccc3)C2)n1 (configuration not stated)
### Response 1 µM (active)

* * *

Some compounds, each annotated with its measured GI50.
Test system: MDA-MB-435
Assay Comment: NCI tumour cell line growth inhibition, 48 h
The source made the active and inactive calls. No stated cut-off is given here; in the data, active = GI50 up to about 1.1 µM and inactive = higher. Where a SMILES comes first, the peptide text is derived from it. [ ]: non-standard residue; d: D form. Hiv = CC(C)[C@H](O)C(=O)O

{"columns": ["Compound", "GI50"],
 "data": [
  ["CN1C(=O)c2c(ccc3c2OCO3)C2C(O)Cc3cc4c(cc3C21)OCO4 (configuration not stated)", "1.61 µM (inactive)"],
  ["COc1cc(OC(=O)c2ccccc2)cc2c1C(=O)C=CC2=O", "5.65 µM (inactive)"],
  ["C=C1C(=O)OC2C1C(=O)C/C(C)=C/CCC1(C)OC21 (configuration not stated)", "15.4 µM (inactive)"],
  ["COC(=O)n1c(=O)n(-c2ccccc2)c(=O)n1C(=O)OC", "> 100 µM (inactive)"],
  ["Clc1ccc(C2ON=C(c3ccccc3)N2C23CC4CC(CC(C4)C2)C3)c(Cl)c1 (configuration not stated)", "> 10 µM (inactive)"]
]}

### Prompt Read off the recorded GI50 for CC(C)[C@@H]1OC(=O)[C@@H](C)NC(=O)[C@@H]2CCCN2C1=O (cyclo([Hiv]-Pro-[dA]))
### Response > 100 µM (inactive)

### Prompt Read off the recorded GI50 for CCCCSCCC(N)P(=O)(O)O (configuration not stated)
### Response > 100 µM (inactive)

### Prompt Read off the recorded GI50 for NC(=O)C(=O)n1ncc(Cl)c(Cl)c1=O
### Response > 100 µM (inactive)

### Prompt Read off the recorded GI50 for CN(C)CCn1c(=O)oc2cc(C(=O)CN3CCOCC3)ccc21
### Response > 100 µM (inactive)

### Prompt Read off the recorded GI50 for N#CCC1(c2ccc(Cl)cc2)NC(=O)c2ccccc21 (configuration not stated)
### Response > 100 µM (inactive)

### Prompt Read off the recorded GI50 for COc1nc2c(c(=O)[nH]1)N=C(c1ccc([N+](=O)[O-])cc1)CC(c1ccccc1)N2 (configuration not stated)
### Response > 100 µM (inactive)

* * *

Tested on: HOP-62
Assay Comment: NCI tumour cell line growth inhibition, 48 h
Calls of active or inactive are those of the source. Cut-off read from the data, not from the text of the source: active = GI50 up to about 1.1 µM and inactive = higher.
Measure Name: GI50

### Prompt Read off the recorded GI50 for O=[N+]([O-])c1ccc2c(c1)nc(Cc1ccc(Cl)cc1)n2C[C@@H]1CCCN2CCCCC12 (stereo partly specified)
### Response 20.5 µM (inactive)

* * *

Test system: HT-29
Assay Comment: NCI tumour cell line growth inhibition, 48 h
Active and inactive are the calls of the source. No stated cut-off is given here; in the data, active = GI50 up to about 1.1 µM and inactive = higher.
Some compounds, each annotated with its measured GI50.

Worked examples follow.
{"columns": ["Compound", "Meas Value"],
 "data": [
  ["CC(=O)N1C(Nc2nccs2)CCN1c1ccccc1 (stereo not given)", "> 10 µM (inactive)"],
  ["CCOC(=O)/C(C#N)=N\\Nc1ccc(-n2c(C)nc3ccc(Br)cc3c2=O)cc1", "69.5 µM (inactive)"],
  ["CCOC(=O)C(C)c1nc2cc3cccnc3c(Cl)c2[nH]c1=O (stereo not given)", "> 100 µM (inactive)"]
]}

### Prompt Read off the recorded GI50 for O=c1[nH]cnc2c1ncn2[C@@H]1C[C@@H]1CO
### Response > 100 µM (inactive)

### Prompt Read off the recorded GI50 for CC(=O)Oc1ccccc1[C@H]1CC(=O)C[C@H](c2ccccc2OC(C)=O)C12C(=O)c1ccccc1C2=O
### Response 29.2 µM (inactive)

### Prompt Read off the recorded GI50 for CN(C)c1ccc2c(NCCCCCCNc3ccnc4cc(N(C)C)ccc34)ccnc2c1
### Response 19.2 µM (inactive)

### Prompt Read off the recorded GI50 for Cc1ccc(Cc2n[nH]c(=O)n2-c2ccccc2)cc1
### Response > 100 µM (inactive)

### Prompt Read off the recorded GI50 for COc1ccccc1NC(=O)C(=O)C(C(=O)c1ccccc1F)C1OC(=O)c2ccccc21 (stereo not given)
### Response 23.9 µM (inactive)

### Prompt Read off the recorded GI50 for O=c1oc2ccccc2cc1-c1cn2c(n1)sc1ccccc12
### Response 1.15 µM (inactive)

### Prompt Read off the recorded GI50 for COc1ccc(C(=O)C/C(=N/NC(N)=S)C(=O)Nc2ccccc2)cc1
### Response > 100 µM (inactive)

The measured values listed here are drawn from ChEMBL document CHEMBL1201862.
